# pKd annotations
Target: T1, cynomolgus MSLN-His-Avi (cynomolgus, single biotin (BirA) in the biotinylated form)
T1 construct: Monomeric, made in HEK293-6E; also called cMSLN-His-Avi; cyno MSLN-His-Avi
T1 chain: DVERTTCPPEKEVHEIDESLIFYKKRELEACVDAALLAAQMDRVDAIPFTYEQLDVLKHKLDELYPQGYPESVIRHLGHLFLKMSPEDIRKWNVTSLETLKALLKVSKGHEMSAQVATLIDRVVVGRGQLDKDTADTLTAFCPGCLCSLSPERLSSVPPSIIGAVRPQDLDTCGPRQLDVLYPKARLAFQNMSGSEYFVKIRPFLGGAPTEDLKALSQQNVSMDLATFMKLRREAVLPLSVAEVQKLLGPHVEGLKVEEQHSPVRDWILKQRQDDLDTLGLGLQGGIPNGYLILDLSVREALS
Experiment: SPR (Biacore), mAb^2 captured on Protein G, MSLN in solution injected
Recall that pKd is obtained by taking minus log10 of the concentration measured in molar.

Below are worked cases with known answers.
FS22-053-008-AA/FS28-256-023 mAb^2 (bispecific antibody, human IgG1, kappa, L234A L235A, V domains shown) VH: EVQLLESGGGLVQPGGSLRLSCAASGFTFTQTYMSWVRQAPGKGLEWVSNISPTYSTTNYADSVKGRFTISRDNSKNTLYLQMNSLRAEDTAVYYCARYNAYQIGLDYWGQGTLVTVSS VL: EIVLTQSPGTLSLSPGERATLSCRASQSVSSSYLAWYQQKPGQAPRLLIYGASSRATGIPDRFSGSGSGTDFTLTISRLEPEDFAVYYCQQHNQYPNTFGQGTKVEIKR	7.49
FS22-053-008-AA/FS28-024-053 mAb^2 (bispecific antibody, human IgG1, kappa, L234A L235A, V domains shown, also called FS28-024-53) VH: EVQLLESGGGLVQPGGSLRLSCAASGFTLSYSSMSWVRQAPGKGLEWVSFITPSTGYTHYADSVKGRFTISRDNSKNTLYLQMNSLRAEDTAVYYCARRALVFDYWGQGTLVTVSS VL: EIVLTQSPGTLSLSPGERATLSCRASQSVSSSYLAWYQQKPGQAPRLLIYGASSRATGIPDRFSGSGSGTDFTLTISRLEPEDFAVYYCQQASSYPLTFGQGTKVEIKR	7.11
FS22-053-008-AA/FS28-256-024 mAb^2 (bispecific antibody, human IgG1, kappa, L234A L235A, V domains shown) VH: EVQLLESGGGLVQPGGSLRLSCAASGFTFTHTYMSWVRQAPGKGLEWVSNISPTYSTTNYADSVKGRFTISRDNNKNTLYLQMNSLRAEDTAVYYCARYNAYHAALDYWGQGTLVTVSS VL: EIVLTQSPGTLSLSPGERATLSCRASQSVSSSYLAWYQQKPGQAPRLLIYGASSRATGIPDRFSGSGSGTDFTLTISRLEPEDFAVYYCQQALGYPHTFGQGTKVEIKR	7.25
FS22-053-008-AA/FS28-185 (bispecific antibody, human IgG1, kappa, L234A L235A, V domains shown) VH: EVQLLESGGGLVQPGGSLRLSCAASGFTFTTSAMSWVRQAPGKGLEWVSRINPYEGETNYADSVKGRFTISRDNSKNTLYLQMNSLRAEDTAVYYCARGWSIATYYKSAMDYWGQGTLVTVSS VL: EIVLTQSPGTLSLSPGERATLSCRASQSVSSSYLAWYQQKPGQAPRLLIYGASSRATGIPDRFSGSGSGTDFTLTISRLEPEDFAVYYCQQSSYSAPVTFGQGTKVEIKR	6.44
FS22-053-008-AA/FS28-256-021 mAb^2 (bispecific antibody, human IgG1, kappa, L234A L235A, V domains shown) VH: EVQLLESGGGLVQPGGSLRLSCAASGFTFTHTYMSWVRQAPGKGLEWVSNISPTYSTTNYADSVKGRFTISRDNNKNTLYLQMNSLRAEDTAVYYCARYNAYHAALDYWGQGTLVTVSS VL: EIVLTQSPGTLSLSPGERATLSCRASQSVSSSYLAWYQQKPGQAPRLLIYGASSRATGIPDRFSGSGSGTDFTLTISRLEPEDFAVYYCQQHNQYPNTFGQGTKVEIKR	7.79
FS22-053-008-AA/FS28-256-026 mAb^2 (bispecific antibody, human IgG1, kappa, L234A L235A, V domains shown) VH: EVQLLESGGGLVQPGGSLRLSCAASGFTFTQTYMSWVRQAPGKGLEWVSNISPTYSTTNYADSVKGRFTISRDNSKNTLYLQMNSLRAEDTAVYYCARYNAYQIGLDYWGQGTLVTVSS VL: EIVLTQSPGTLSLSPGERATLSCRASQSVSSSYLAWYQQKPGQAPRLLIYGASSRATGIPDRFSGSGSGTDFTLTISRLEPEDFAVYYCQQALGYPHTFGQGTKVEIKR	7.48
FS22-053-008-AA/FS28-024-060 mAb^2 (bispecific antibody, human IgG1, kappa, L234A L235A, V domains shown) VH: EVQLLESGGGLVQPGGSLRLSCAASGFTLSYSSMSWVRQAPGKGLEWVSFITPSTGYTHYADSVKGRFTISRDNSKNTLYLQMNSLRAEDTAVYYCARRALWFDYWGQGTLVTVSS VL: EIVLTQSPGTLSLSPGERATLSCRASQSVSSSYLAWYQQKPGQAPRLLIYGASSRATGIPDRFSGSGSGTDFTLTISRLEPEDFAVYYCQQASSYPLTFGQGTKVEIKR	6.58
FS22-053-008-AA/FS28-024 mAb^2 (bispecific antibody, human IgG1, kappa, L234A L235A, V domains shown, also called FS28-024 (in FS22-053-008-AA mAb^2 format); FS28-024 (in CD137 mAb2 format)) VH: EVQLLESGGGLVQPGGSLRLSCAASGFTLSYSSMSWVRQAPGKGLEWVSFITPSTGYTHYADSVKGRFTISRDNSKNTLYLQMNSLRAEDTAVYYCARRALTFDYWGQGTLVTVSS VL: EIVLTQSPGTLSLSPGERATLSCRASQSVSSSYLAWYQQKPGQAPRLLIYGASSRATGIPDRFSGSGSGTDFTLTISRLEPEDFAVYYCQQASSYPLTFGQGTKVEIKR	6.62

Could you please provide reported pKd for FS22-053-008-AA/FS28-256 (bispecific antibody, human IgG1, kappa, L234A L235A, V domains shown) VH: EVQLLESGGGLVQPGGSLRLSCAASGFTFTNTYMSWVRQAPGKGLEWVSNISPTYSTTNYADSVKGRFTISRDNSKNTLYLQMNSLRAEDTAVYYCARYNSYQGGLDYWGQGTLVTVSS VL: EIVLTQSPGTLSLSPGERATLSCRASQSVSSSYLAWYQQKPGQAPRLLIYGASSRATGIPDRFSGSGSGTDFTLTISRLEPEDFAVYYCQQSYYYPITFGQGTKVEIKR ? Thanks!
6.13

State, in one line, measured pKd of FS22-053-008-AA/FS28-256-012 mAb^2 (bispecific antibody, human IgG1, kappa, L234A L235A, V domains shown) VH: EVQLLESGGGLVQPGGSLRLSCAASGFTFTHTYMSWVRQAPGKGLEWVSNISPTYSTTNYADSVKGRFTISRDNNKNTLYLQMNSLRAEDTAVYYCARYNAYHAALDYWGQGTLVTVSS VL: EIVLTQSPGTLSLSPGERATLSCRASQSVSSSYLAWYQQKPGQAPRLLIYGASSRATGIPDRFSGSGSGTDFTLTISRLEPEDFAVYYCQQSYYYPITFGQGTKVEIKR
6.14
